- Tgt: EGFR (L792F/L858R) (Homo sapiens, UniProt P00533, L792F/L858R)
- Sequence (P00533 25-1210 L792F/L858R): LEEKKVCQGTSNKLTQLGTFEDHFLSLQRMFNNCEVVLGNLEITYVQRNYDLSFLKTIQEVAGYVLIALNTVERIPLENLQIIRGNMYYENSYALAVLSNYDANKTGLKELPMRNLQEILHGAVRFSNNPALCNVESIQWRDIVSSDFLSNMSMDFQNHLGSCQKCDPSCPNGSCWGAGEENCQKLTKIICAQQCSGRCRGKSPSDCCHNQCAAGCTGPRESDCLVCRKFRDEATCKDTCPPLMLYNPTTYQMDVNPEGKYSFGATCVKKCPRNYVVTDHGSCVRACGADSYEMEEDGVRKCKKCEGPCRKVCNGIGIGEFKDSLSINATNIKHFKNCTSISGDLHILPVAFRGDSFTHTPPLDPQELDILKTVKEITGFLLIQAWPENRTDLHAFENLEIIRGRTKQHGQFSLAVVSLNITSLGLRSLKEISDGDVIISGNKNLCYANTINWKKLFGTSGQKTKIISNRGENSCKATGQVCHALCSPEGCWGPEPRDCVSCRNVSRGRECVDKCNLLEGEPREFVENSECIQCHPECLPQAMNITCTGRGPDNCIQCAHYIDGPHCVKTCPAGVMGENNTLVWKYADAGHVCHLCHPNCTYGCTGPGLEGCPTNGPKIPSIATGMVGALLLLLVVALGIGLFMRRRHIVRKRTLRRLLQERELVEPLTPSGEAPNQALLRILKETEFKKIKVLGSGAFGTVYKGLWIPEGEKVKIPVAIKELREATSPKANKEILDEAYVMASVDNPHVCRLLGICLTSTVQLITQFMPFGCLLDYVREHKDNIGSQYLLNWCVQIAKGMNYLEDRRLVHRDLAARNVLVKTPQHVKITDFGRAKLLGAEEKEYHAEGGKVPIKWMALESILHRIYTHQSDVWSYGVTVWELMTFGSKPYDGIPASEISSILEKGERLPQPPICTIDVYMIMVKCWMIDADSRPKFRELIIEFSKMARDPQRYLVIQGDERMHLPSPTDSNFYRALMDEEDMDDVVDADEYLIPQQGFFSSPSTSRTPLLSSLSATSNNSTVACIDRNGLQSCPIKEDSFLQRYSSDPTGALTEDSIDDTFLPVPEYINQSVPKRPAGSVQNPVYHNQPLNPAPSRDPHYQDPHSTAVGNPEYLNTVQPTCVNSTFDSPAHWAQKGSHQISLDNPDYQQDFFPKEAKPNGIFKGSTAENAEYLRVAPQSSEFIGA
- Assay notes: EGFR-family mutant enzyme activity (Reaction Biology)
pIC50: −log10 of the molar value.
Measure: pIC50

smiles=COc1cc(N2CCC(N3CCN(C)CC3)CC2)ccc1Nc1cc(N2OCC[C@@H]2c2ccc(F)cc2F)ncn1 tgt="EGFR (L792F/L858R) (Homo sapiens, UniProt P00533, L792F/L858R)" reported_measurement=7.11

###

- Tgt: EGFR (L792F) (Homo sapiens, UniProt P00533, L792F)
- Construct: purchased Reaction Biology
- Sequence (P00533 25-1210 L792F): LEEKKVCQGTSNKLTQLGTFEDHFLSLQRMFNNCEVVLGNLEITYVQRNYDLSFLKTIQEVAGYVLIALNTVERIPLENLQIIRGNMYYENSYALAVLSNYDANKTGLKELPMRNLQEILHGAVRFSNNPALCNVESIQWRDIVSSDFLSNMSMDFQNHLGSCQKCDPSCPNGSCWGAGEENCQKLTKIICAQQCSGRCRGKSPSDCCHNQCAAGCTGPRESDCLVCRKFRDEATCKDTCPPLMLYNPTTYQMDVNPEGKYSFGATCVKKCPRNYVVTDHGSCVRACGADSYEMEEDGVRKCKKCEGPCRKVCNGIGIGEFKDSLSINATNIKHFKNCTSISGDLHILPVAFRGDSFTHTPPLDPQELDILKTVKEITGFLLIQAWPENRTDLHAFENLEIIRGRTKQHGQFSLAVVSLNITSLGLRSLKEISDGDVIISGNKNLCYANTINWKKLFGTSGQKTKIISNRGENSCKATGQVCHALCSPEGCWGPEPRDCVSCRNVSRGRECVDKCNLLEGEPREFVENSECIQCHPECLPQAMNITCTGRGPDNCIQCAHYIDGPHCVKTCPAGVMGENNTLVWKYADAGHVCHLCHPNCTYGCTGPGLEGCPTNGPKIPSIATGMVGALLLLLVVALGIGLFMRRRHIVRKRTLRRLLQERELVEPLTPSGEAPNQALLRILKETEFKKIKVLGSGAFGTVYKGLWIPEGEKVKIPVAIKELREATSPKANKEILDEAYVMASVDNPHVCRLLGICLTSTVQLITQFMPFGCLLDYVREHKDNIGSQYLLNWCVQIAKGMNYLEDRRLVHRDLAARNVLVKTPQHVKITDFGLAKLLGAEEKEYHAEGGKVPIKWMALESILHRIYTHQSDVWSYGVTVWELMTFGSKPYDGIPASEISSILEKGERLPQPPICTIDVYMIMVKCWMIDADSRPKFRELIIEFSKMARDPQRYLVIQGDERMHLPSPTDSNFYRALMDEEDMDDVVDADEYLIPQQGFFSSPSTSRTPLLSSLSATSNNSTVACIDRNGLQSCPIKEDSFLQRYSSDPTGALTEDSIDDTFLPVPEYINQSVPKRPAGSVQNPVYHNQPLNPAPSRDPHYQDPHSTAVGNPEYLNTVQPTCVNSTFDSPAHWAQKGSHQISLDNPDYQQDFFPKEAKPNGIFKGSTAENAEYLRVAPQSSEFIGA
- Assay notes: EGFR-family mutant enzyme activity (Reaction Biology)
- Format: biochemical
pIC50: −log10 of the molar value.
Measure: pIC50

smiles=COc1cc(N2CCC(N3CCN(C)CC3)CC2)ccc1Nc1cc(N2OCC[C@@H]2c2ccc(F)cc2F)ncn1 reported_measurement=8.06

###

- Test system: Ba/F3 cells expressing EGFR Del19/C797S (EGFR DC)
- Assay notes: Proliferation inhibitory activity, Ba/F3 cells expressing EGFR Del19/C797S (CellTiter-Glo)
- Format: cell-based
- Setup conditions: Mus musculus, BaF3, 72 hours of compound treatment
Quick reference for GI50 among some molecules
Measure: GI50

smiles=COc1cc(N2CCC(N3C[C@H]4C[C@@H]3CN4C)CC2)ccc1Nc1cc(N2OCC[C@@H]2c2ccccc2)ncn1 measure=GI50 reported_measurement="< 50 nM"
smiles=COc1cc(N2CCC(N3CCN(C)CC3)CC2)ccc1Nc1cc(N2OCC[C@@H]2c2ccc(F)c(F)c2)ncn1 measure=GI50 reported_measurement="< 50 nM"
smiles=COc1cc(N2CCC(N3CCN(C)CC3)CC2)ccc1Nc1cc(N2OCC[C@@H]2c2cccc(C(F)(F)F)c2)ncn1 measure=GI50 reported_measurement="50 to 500 nM"
smiles=CCN1CCN(C2CCN(c3ccc(Nc4cc(N5OCC[C@@H]5c5ccccc5)ncn4)c(OC)c3)CC2)CC1 measure=GI50 reported_measurement="< 50 nM"

###

Documented GI50 across a set of molecules
- Test system: Ba/F3 cells expressing EGFR Del19/C797S (EGFR DC)
- Assay notes: Proliferation inhibitory activity, Ba/F3 cells expressing EGFR Del19/C797S (CellTiter-Glo)
- Format: cell-based
- Setup conditions: Mus musculus, BaF3, 72 hours of compound treatment
Measure: GI50

molecule="C[C@@H](Oc1cc(N2CCC(N3CCN(C)CC3)CC2)ccc1Nc1cc(N2OCC[C@@H]2c2ccccc2)ncn1)C(F)(F)F [Example 56]" measure=GI50 reported_measurement="< 50 nM"
molecule="C=CCN1CCN(C2CCN(c3ccc(Nc4cc(N5OCC[C@@H]5c5cccc(F)c5F)ncn4)c(OC)c3)CC2)CC1 [Example 206]" measure=GI50 reported_measurement="< 50 nM"
molecule="COc1cc(N2CCC(N3CCOCC3)CC2)ccc1Nc1cc(N2OCC[C@@H]2c2ccccc2)ncn1 [Example 120]" measure=GI50 reported_measurement="< 50 nM"
molecule="CN1CCN(C2CCN(c3ccc(Nc4cc(N5OCC[C@@H]5c5cc(F)cc(F)c5)ncn4)cc3)CC2)CC1 [Example 17]" measure=GI50 reported_measurement="50 to 500 nM"
molecule="CN1OCC[C@H]1c1ccc(Nc2cc(N3OCC[C@@H]3c3cccc(F)c3F)ncn2)cc1 [Example 176]" measure=GI50 reported_measurement="50 to 500 nM"
molecule="CN1CCN(c2ccc(Nc3cc(N4OCC[C@@H]4c4cncc(Cl)c4)ncn3)cc2)CC1 [Example 180]" measure=GI50 reported_measurement="50 to 500 nM"
molecule="COc1cc(N2CCC(N3CCN(C4CCC4)CC3)CC2)ccc1Nc1cc(N2OCC[C@@H]2c2cccc(F)c2F)ncn1 [Example 208]" measure=GI50 reported_measurement="< 50 nM"
